target: E. coli ExoI (Escherichia coli)
Sequence (P04995 whole entry): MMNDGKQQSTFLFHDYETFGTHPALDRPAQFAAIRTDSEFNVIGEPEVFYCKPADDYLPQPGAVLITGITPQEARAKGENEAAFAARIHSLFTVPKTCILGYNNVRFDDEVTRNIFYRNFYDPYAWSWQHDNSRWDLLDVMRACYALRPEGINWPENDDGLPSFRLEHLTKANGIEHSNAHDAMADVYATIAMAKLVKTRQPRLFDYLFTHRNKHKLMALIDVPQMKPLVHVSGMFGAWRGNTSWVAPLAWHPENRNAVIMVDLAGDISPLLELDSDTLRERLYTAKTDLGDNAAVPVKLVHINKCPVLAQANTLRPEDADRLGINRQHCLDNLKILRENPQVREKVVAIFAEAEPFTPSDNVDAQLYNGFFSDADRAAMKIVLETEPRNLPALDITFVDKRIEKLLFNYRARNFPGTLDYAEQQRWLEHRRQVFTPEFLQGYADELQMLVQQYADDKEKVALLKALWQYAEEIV
Residues, ends and D or L forms follow the SMILES beside them.
parameter.measured: IC50 (µM)
The reply should contain only the number, in µM.

Answer with IC50 of CC[C@H](C)[C@H](NC(=O)[C@@H](N)Cc1c[nH]c2ccccc12)C(=O)N1CCC[C@H]1C(=O)N[C@@H](Cc1ccccc1)C(=O)O [WIPF] (H-WIPF-OH) measured for E. coli ExoI (Escherichia coli). 252
